method: PAMPA, pKa^FLUX method, stirred and unstirred PAMPA sandwich
condition info: PAMPA, Pu (boundary layer permeability), stirred at 622 rpm; aqueous buffer
Where a name gives a salt, the structure may show the parent alone.
assay metric: Papp at 50 µM (×10⁻⁶ cm/s)

1) CC(C)NCC(O)COc1cccc2ccccc12 (stereo not shown) [Propranolol, propranolol-HCl] ... 3110

###

method: in vitro
condition info: PAMPA, Pu (boundary layer permeability)
Quick reference: Papp at 50 µM of the listed items.
assay metric: Papp at 50 µM (×10⁻⁶ cm/s)

1. COc1ccc(CCN2CCC(Nc3nc4ccccc4n3Cc3ccc(F)cc3)CC2)cc1 ... 746
2. COC(=O)C1=C(C)NC(C)=C(C(=O)OCCN(C)Cc2ccccc2)C1c1cccc([N+](=O)[O-])c1 (stereo not shown) ... 1250
3. CCn1cc(C(=O)O)c(=O)c2ccc(C)nc21 ... 44
4. O=C1C[C@@H](c2ccc(O)cc2)Oc2cc(O)cc(O)c21 ... 39

###

method: PAMPA, pKa^FLUX method, stirred and unstirred PAMPA sandwich
condition info: PAMPA, Pu (boundary layer permeability), stirred at 186 rpm; aqueous buffer
Counter-ions that a name gives are not always drawn.
assay metric: Papp at 50 µM (×10⁻⁶ cm/s)

1) CC(C)NCC(O)COc1cccc2ccccc12 (stereo not shown) [Propranolol, propranolol-HCl] ... 951

###

method: PAMPA, pKa^FLUX method, stirred and unstirred PAMPA sandwich
condition info: PAMPA, Pu (boundary layer permeability), stirred at 49 rpm; aqueous buffer
Where a name gives a salt, the structure may show the parent alone.
assay metric: Papp at 50 µM

1. CC(C)NCC(O)COc1cccc2ccccc12 (stereo not shown) [Propranolol, propranolol-HCl] ... 369 ×10⁻⁶ cm/s

###

method: in vitro
condition info: PAMPA, Pu (boundary layer permeability)
Structures can show the parent of a compound that is named as a salt.
Rule: Papp at 50 µM of 1000 ×10⁻⁶ cm/s or more gives 1 (yes); anything lower gives 0 (no).

1. CCOC(=O)C1=C(COCCN)NC(C)=C(C(=O)OC)C1c1ccccc1Cl (stereo not drawn) [Amlodipine, amlodipine-maleate] ... 1 (yes)
2. O=C(O)c1ccc2ccccc2c1 ... 0 (no)
3. CNCCCC1c2ccccc2C=Cc2ccccc21 [Protriptyline, protriptyline-HCl] ... 1 (yes)
4. O=C(O)Cc1cccc(O)c1 [3-hydroxyphenylacetic acid] ... 0 (no)
5. CCC(C)n1ncn(-c2ccc(N3CCN(c4ccc(OCC5COC(Cn6cncn6)(c6ccc(Cl)cc6Cl)O5)cc4)CC3)cc2)c1=O (stereo not drawn) ... 1 (yes)
6. COc1cc2nc(N3CCN(C(=O)c4ccco4)CC3)nc(N)c2cc1OC [Prazosin, prazosin-HCl] ... 0 (no)
7. CN(C)C/C=C(/c1ccc(Br)cc1)c1cccnc1 ... 1 (yes)
8. Clc1ccc(COC(Cn2ccnc2)c2ccc(Cl)cc2Cl)c(Cl)c1 (stereo not drawn) [Miconazole, miconazole-nitrate] ... 1 (yes)
9. CCCC(=O)Nc1ccc(OCC(O)CNC(C)C)c(C(C)=O)c1 (stereo not drawn) ... 0 (no)

###

method: in vitro
condition info: PAMPA, Pu (boundary layer permeability)
Method: Additionally, those molecular entities that are footnoted as “2” had permeability measurements obtained in an aqueous buffer and a buffer having 20 percent acetonitrile added thereto. […] After a permeation time in the GUT-BOX was reached, the PAMPA sandwich could then be separated and the donor and acceptor compartments studied for the amount of entity present. The amount of entity present was determined from UV measurements compared to UV spectra obtained from reference standards. […]
Structures can show the parent of a compound that is named as a salt.
Rule: Papp at 50 µM of 40 ×10⁻⁶ cm/s or more gives label 1; anything lower gives label 0.

1) O=C(O)c1ccccc1O [Salicylic acid, salicylic acid] ... label 0
2) O=C1NC(=O)C(c2ccccc2)(c2ccccc2)N1 [Phenytoin, phenytoin-Na] ... label 0
3) CNCCC=C1c2ccccc2CCc2ccccc21 [Nortriptyline, nortriptyline-HCl] ... label 1
4) CC(C)(C)c1ccc(C(O)CCCN2CCC(C(O)(c3ccccc3)c3ccccc3)CC2)cc1 (centres unmarked) [Terfenadine, terfenadine] ... label 1
5) CN1C(C(=O)Nc2ccccn2)=C(O)c2ccccc2S1(=O)=O [Piroxicam, piroxicam] ... label 0
6) Cc1nccn1CC1CCc2c(c3ccccc3n2C)C1=O (centres unmarked) [Ondansetron, ondansetron] ... label 1
7) Cc1c(OCC(F)(F)F)ccnc1C[S+]([O-])c1nc2ccccc2[nH]1 (centres unmarked) [Lansoprazole, lansoprazole] ... label 0

###

method: PAMPA, pKa^FLUX method, stirred and unstirred PAMPA sandwich
condition info: PAMPA, Pu (boundary layer permeability), 0 rpm (unstirred); aqueous buffer; pKa^FLUX method
Counter-ions that a name gives are not always drawn.
Quick reference: Papp at 50 µM of the listed items.
assay metric: Papp at 50 µM (×10⁻⁶ cm/s)

1) CC(=O)CC(c1ccccc1)c1c(O)c2ccccc2oc1=O (centres unmarked) ... 70
2) CC(C)NCC(O)COc1cccc2ccccc12 (centres unmarked) [Propranolol, propranolol-HCl] ... 41

###

method: PAMPA, pKa^FLUX method, stirred and unstirred PAMPA sandwich
condition info: PAMPA, Pu (boundary layer permeability), stirred at 118 rpm; aqueous buffer
Structures can show the parent of a compound that is named as a salt.
assay metric: Papp at 50 µM

1) CC(C)NCC(O)COc1cccc2ccccc12 (stereo not shown) [Propranolol, propranolol-HCl] ... 601 ×10⁻⁶ cm/s

Data credit: patent US8840849B2
